# assay.explanation: protein stability index of a GFP-peptide fusion (GPS, HEK-293T) (PSI 1-6); higher = more stable;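 further: 24-mer peptide tiles fused after GFP, lentivirally expressed, FACS-sorted into six equal bins by GFP/DsRed ratio, decoded by Illumina sequencing, PSI is the read-weighted mean bin number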
# settings: treatment: DMSO; c terminus: a fixed tail appended
Class satisfied: protein stability index at least 3. Class not satisfied: protein stability index below 3.

Is reported protein stability index greater than or equal to 3 here: VMDYLPISSTSTKRTYWPDLDAKI [PLD5] not satisfied

Is reported protein stability index greater than or equal to 3 here: LLSTSLDAKDELEERLERCMSIVT [INTS3] satisfied

Is reported protein stability index greater than or equal to 3 here: TALGDKKSLEGDLEDLKDQIAQLE [LMNB1] satisfied

Is reported protein stability index greater than or equal to 3 here: LEIELQSQLSMKAGLENTVAETEC [KRT13] satisfied

Is reported protein stability index greater than or equal to 3 here: CKNGETLLGAVNFFVSSINTLVTK [ARFIP2] not satisfied

Is reported protein stability index greater than or equal to 3 here: KGERGEDSSEEKHLEEPGETQNAF [CHGB] satisfied

Is reported protein stability index greater than or equal to 3 here: REGDCAPEEKIWEELSVLEVFEGR [MAGEA3] satisfied

Is reported protein stability index greater than or equal to 3 here: KRDDYLEWPEYFMAVAFLSAQRSK [DCTD] not satisfied

Is reported protein stability index greater than or equal to 3 here: LKLANHQRPVSRQVTCLRTQVLED [TRAF3IP2] satisfied

Is reported protein stability index greater than or equal to 3 here: LRADQEKERKKREERERKRRKEEE [FAF2] satisfied

Is reported protein stability index greater than or equal to 3 here: TYGRRAKGHNTPKDIAHFWELGGG [DYNC2LI1] not satisfied

Is reported protein stability index greater than or equal to 3 here: LLADLKKCGDLECEALINRVSAMR [MIA2] not satisfied

Is reported protein stability index greater than or equal to 3 here: IENRDVAKSVLKERGLKKIRLGIE [BTBD10] satisfied

Is reported protein stability index greater than or equal to 3 here: FLVFILNAGLVWFFPWREAKPGST [MFSD9] satisfied

Is reported protein stability index greater than or equal to 3 here: SMFTLPVVYVKHQAQIDQYLGLVR [RTN1] not satisfied

Is reported protein stability index greater than or equal to 3 here: EPEAASSRGSPVRVKREFEPASAR [USP39] satisfied

Is reported protein stability index greater than or equal to 3 here: ETPNPPQSAQIACSSPSVVASLPL [MAGEA10] satisfied

Is reported protein stability index greater than or equal to 3 here: DTETFTWSQPITTGKAPSPRAAHA [KLHDC2] satisfied

Is reported protein stability index greater than or equal to 3 here: EGEIATYRHLLEGEDCKLPPQPCA [KRT36] satisfied

Is reported protein stability index greater than or equal to 3 here: EQFPELMNMLWSRMLKDNKKNWRR [CLINT1] not satisfied

Is reported protein stability index greater than or equal to 3 here: VFFAYAQLGYLLFGTQVENFSTFI [PKD2L1] satisfied

Is reported protein stability index greater than or equal to 3 here: VQVSPEFKDSAGKSPTGLKLKNDT [ZNF75A] satisfied

Is reported protein stability index greater than or equal to 3 here: VLVLIFNAAKTCPTMPALFSDHTF [INTS4] satisfied

Is reported protein stability index greater than or equal to 3 here: TSETSHSPLYADPYTPPATSHRRV [PLEKHN1] satisfied

Is reported protein stability index greater than or equal to 3 here: NFSAAKSLLKKPDGVKESTESSNT [CAMK2D] satisfied

----------
# assay.explanation: protein stability index of a GFP-peptide fusion (GPS, HEK-293T) (PSI 1-6); higher = more stable
# settings: treatment: DMSO; c terminus: native
Class label 1: protein stability index at least 3. Class label 0: protein stability index below 3.

Is reported protein stability index greater than or equal to 3 here: LQKQGKYSGVGLLDHMVSIYLLI [RNF180] label 0

Is reported protein stability index greater than or equal to 3 here: LNVRGGKPDDITVLLSIVAEYTD [PPTC7] label 1

Is reported protein stability index greater than or equal to 3 here: SVSCCHGNTLLAVRSVTDEPVPP [NEK8] label 1

Is reported protein stability index greater than or equal to 3 here: HYICTLKQPHLLLEKYSYYLISG [PNLIPRP1] label 1

Is reported protein stability index greater than or equal to 3 here: YSFRNPDVQSAIWRMLTGRRSLA [OR3A1] label 0

Is reported protein stability index greater than or equal to 3 here: GDRAGDASKDILLGPWDMVLAQG [SCARA5] label 0

Is reported protein stability index greater than or equal to 3 here: EQAKENENGELQKIILPRSRVKG [ZC2HC1C] label 1

Is reported protein stability index greater than or equal to 3 here: VLICVIVFIIILFIVLFATGAFS [VAMP8] label 1

Is reported protein stability index greater than or equal to 3 here: PEPGRAGYPAPRDEGVLRPRAHA [HAGHL] label 1

Is reported protein stability index greater than or equal to 3 here: PESVERLTGVSISQVNHKPLRTA [FLOT1] label 0

Is reported protein stability index greater than or equal to 3 here: EQVFSLGDGVSGGFFGIRDSSFL [ZBED1] label 1

Is reported protein stability index greater than or equal to 3 here: `QRSHMGKLKEPQPQDHKPGLGAS` label 1

Is reported protein stability index greater than or equal to 3 here: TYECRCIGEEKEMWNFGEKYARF [TIA1] label 0

Is reported protein stability index greater than or equal to 3 here: KPTRRDASPESPSKKGPIPIRRH [GNAS] label 1

Is reported protein stability index greater than or equal to 3 here: SVFLLTLSIAFICCAQVKVSHLL [PHTF1] label 1

Is reported protein stability index greater than or equal to 3 here: TYKRFEGLTQRGSIPTYMKAGKL [STK38L] label 0

----------
# assay.explanation: protein stability index of a GFP-peptide fusion (GPS, HEK-293T) (PSI 1-6); higher = more stable
# settings: treatment: MLN4924 1 uM, 8 h; c terminus: a fixed tail appended
endpoint.name: protein stability index
The answer should be a number; do not append a unit.

Field request: protein stability index | item: FSVSSTSRRIYRCRNCINLQNEAQ [IQUB] 2.34

Field request: protein stability index | item: MLREPAEPVAAEPKQSGSFRYLQG [PDLIM4] 4.25

Field request: protein stability index | item: RSLILDDRGLRGFPKNRVLEGVID [TRIM9] 3.47

Field request: protein stability index | item: LSAANVCLDPIIYFFLCQPFREIL [P2RY14] 2.58

Field request: protein stability index | item: SDRRKEKDPKAGDSKSGGSGSESD [DVL3] 5.55

Field request: protein stability index | item: DKALMIAMEYAPGGTLAEFIQKRC [NEK8] 2.54

Field request: protein stability index | item: DKDVRLLVACCLADIFRIYAPEAP [PDS5B] 3.02

Field request: protein stability index | item: GPMCDLLWSDPDDRGGWGISPRGA [PPP2CA] 3.21

Field request: protein stability index | item: AGWTLATLGEQGLPHQSHRQRSSL [SCNN1D] 3.75

Field request: protein stability index | item: PKPAGGAIPTKKSLPSPSSSGHQN [FBF1] 4.92

Field request: protein stability index | item: KNYNYGMHYCAVPPRGPLGQGAMF [NEUROD6] 2.47

Field request: protein stability index | item: DNLRKVVPCYSKTQKLSKIETLRL [NEUROD6] 2.8

Field request: protein stability index | item: AAATTTTTTSAATATTAPPALDIF [SNAP91] 4.61

----------
Provide the recorded protein stability index for the entries that follow.
# assay.explanation: protein stability index of a GFP-peptide fusion (GPS, HEK-293T) (PSI 1-6); higher = more stable
# settings: treatment: MLN4924 1 uM, 8 h; c terminus: a fixed tail appended
The answer should be a number; do not append a unit.

Field request: protein stability index | item: SETHAAGHSQEKTHSREKSSQESG [CHGB] 5.57

Field request: protein stability index | item: EPEAASSRGSPVRVKREFEPASAR [USP39] 5.11

Field request: protein stability index | item: AREGLAAPPRRLRSRKVSCPLTRS [FCHO1] 4.13

Field request: protein stability index | item: LINYQDDAELATRAIPELTKLLND [CTNNB1] 3.59

Field request: protein stability index | item: TQHNFQEVMESEEFMLLPANQLID [KLHL20] 4.66

Field request: protein stability index | item: GAFETVLASAYTGRLSMAAADIVN [ZBTB22] 2.91

Field request: protein stability index | item: AQQLLREFEEATGEAGWGAGEGRL [FOXJ1] 4.66

Field request: protein stability index | item: FGCFFYVYYIFERLCAPLFRNIKQ [SOAT1] 2.69

Field request: protein stability index | item: MTPDIHELVENIKSVLKSDEEHME [FAM189A2] 4.39

Field request: protein stability index | item: VQVSPEFKDSAGKSPTGLKLKNDT [ZNF75A] 4.91

Field request: protein stability index | item: NLFVMQVEMDIYTALKKWMFLQLV [GMCL1] 2.17

Field request: protein stability index | item: WVCFIYTIMSLASLLFVVMFIPET [SLC2A12] 2.74

Field request: protein stability index | item: ALILHQRIHSGKKPYACDECAKAF [ZNF396] 2.84

Field request: protein stability index | item: LSPEVLRKEAYGKPVDIWACGVIL [CAMK2B] 2.51

Field request: protein stability index | item: MEGLETAEGSNSESSDDDSEEAPS [SDE2] 5.51

Field request: protein stability index | item: `RDPSLRPARTVLVGSLSWLRKQLQ` 3.19

Field request: protein stability index | item: AASTAAALENLQVEASCSVCLEYL [TRIM39] 2.81

Field request: protein stability index | item: AIRPENRAPGAGLGQDRQVPLWGQ [EMD] 3.45

Field request: protein stability index | item: ITFPSLESCEEKNQLILTASADRT [WDR41] 4.1

Field request: protein stability index | item: KENIEKDEDDVDQELANIDPTWIE [SRPK2] 5.53

Field request: protein stability index | item: HLDHYYQEELPALLKALVSELSEH [FCHSD1] 2.15

Field request: protein stability index | item: KLHDFFSYLMDHFIPSSHNDRDFL [PPEF2] 2.53

Field request: protein stability index | item: ATFHVGGGPAQNAPHQQPPAPPSD [TFE3] 4.84

Field request: protein stability index | item: AKKIKLTAEAEELKPFFMKEVGSH [SOAT1] 3.59

Field request: protein stability index | item: DIKRGIPNYEFKLGKITFIRNSRP [UFD1] 2.34

Field request: protein stability index | item: SVSWWGLSPALDLQAESPPVDPDS [DNAAF3] 4.94

Field request: protein stability index | item: PSNSSSLTLSGIKEDNSLLNQGFL [MYBL2] 3.81
